- TARGET SYSTEM: Serine/threonine-protein kinase TBK1 (Homo sapiens)
- Sequence (Q9UHD2 whole entry): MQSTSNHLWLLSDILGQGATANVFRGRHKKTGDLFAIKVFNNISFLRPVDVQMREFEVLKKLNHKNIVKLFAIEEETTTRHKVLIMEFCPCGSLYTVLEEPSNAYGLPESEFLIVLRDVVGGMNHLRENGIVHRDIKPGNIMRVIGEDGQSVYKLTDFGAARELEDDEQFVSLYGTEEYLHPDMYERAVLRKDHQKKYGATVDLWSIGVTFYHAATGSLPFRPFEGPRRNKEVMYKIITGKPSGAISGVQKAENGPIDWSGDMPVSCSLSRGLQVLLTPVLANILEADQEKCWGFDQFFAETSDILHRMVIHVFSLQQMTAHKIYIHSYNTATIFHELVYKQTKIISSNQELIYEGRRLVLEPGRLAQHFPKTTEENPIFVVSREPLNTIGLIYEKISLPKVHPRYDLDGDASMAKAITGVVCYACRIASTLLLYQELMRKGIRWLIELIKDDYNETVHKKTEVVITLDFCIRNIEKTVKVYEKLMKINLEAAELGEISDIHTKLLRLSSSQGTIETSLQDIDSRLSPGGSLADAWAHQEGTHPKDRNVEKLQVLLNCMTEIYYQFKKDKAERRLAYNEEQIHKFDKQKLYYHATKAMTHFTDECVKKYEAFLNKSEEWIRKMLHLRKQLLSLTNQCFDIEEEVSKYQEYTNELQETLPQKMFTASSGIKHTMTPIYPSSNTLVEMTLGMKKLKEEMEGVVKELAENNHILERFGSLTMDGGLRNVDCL
MEASUREMENT KIND: pIC50
In textbook form, pIC50 equals minus log to base ten of the concentration in mol/L.

[in] I would be grateful if you could share the reported pIC50 for Nc1ncc(-c2cccc(C(=O)O)c2)cc1C(=O)Nc1ccncc1 .
[out] 5.96
